Please respond with reported TC50 for every item in the list.
# Test system: Vero cells
# condition.details: African green monkey
Unit µM implied. Number only.

Reported TC50 of Nc1ccccc1C(=O)Nc1ncc([N+](=O)[O-])s1 [compound 5, 2-Amino-N-(5-nitrothiazol-2-yl)benzamide] : 31

Reported TC50 of CCC(C)(C)C(=O)Oc1ccccc1C(=O)Nc1ncc([N+](=O)[O-])s1 [compound 8] : 6.2

Reported TC50 of Cc1cnc(NC(=O)c2ccccn2)s1 [compound 48, N-(5-Methylthiazol-2-yl)picolinamide] : 12

Reported TC50 of CCC(C)(C)C(=O)Oc1cc(N2CCOCC2)ccc1C(=O)Nc1ncc([N+](=O)[O-])s1 [compound 14] : 12

###

# System: M. tuberculosis H37Rv (London Pride)
# method.description: microbe, parasite or virus in culture
# Assay type: cell-based, Mycobacterium tuberculosis
# condition.details: SAR discussion
assay.metric: activity against M. tuberculosis (in words)

Example results:
• O=C(Nc1ncc([N+](=O)[O-])s1)C1CCCCC1 = loss of activity
• CCC(C)(C)C(=O)Oc1ccccc1C(=O)Nc1ncc([N+](=O)[O-])s1 = showed activity
• O=C(Nc1ncc([N+](=O)[O-])s1)c1ccncn1 = loss of activity
• O=C(Nc1ncc([N+](=O)[O-])s1)C1CC1 = loss of activity

Here CC(=O)Nc1ncc([N+](=O)[O-])s1 [compound 26, N-(5-Nitrothiazol-2-yl)acetamide] was tested on M. tuberculosis H37Rv (London Pride), and its activity against M. tuberculosis (in words) came to loss of activity

Here CC(C)(C)OC(=O)Nc1ccccc1C(=O)Nc1ncc([N+](=O)[O-])s1 was tested on M. tuberculosis H37Rv (London Pride), and its activity against M. tuberculosis (in words) came to showed activity

###

# System: M. tuberculosis H37Rv (London Pride)
# method.description: microbe, parasite or virus in culture
# Assay type: cell-based, Mycobacterium tuberculosis
# condition.details: SAR discussion
assay.metric: activity against M. tuberculosis (in words)

Example results:
- O=C(Nc1ncc([N+](=O)[O-])s1)c1cc(F)ccc1O: no activity
- CNc1ccccc1C(=O)Nc1ncc([N+](=O)[O-])s1: no activity
- O=[N+]([O-])c1cnc(NCc2ccccn2)s1: inactive
- Cc1nc(NC(=O)c2ccccc2O)sc1[N+](=O)[O-]: inactive

Reported activity against M. tuberculosis (in words) of CCC(C)(C)C(=O)Nc1cccnc1C(=O)Nc1ncc([N+](=O)[O-])s1 : showed activity

Reported activity against M. tuberculosis (in words) of O=C(Nc1ncc(C(=O)O)s1)c1ccccn1 : inactive

Reported activity against M. tuberculosis (in words) of O=C(O)c1ccccc1C(=O)Nc1ncc([N+](=O)[O-])s1 : no activity

Reported activity against M. tuberculosis (in words) of CCC(C)(C)C(=O)Nc1ccccc1C(=O)Nc1ncc([N+](=O)[O-])s1 : showed activity

###

# System: M. tuberculosis H37Rv (London Pride)
# method.description: microbe, parasite or virus in culture
# Type: cell-based, Mycobacterium tuberculosis
# condition.details: Mycobacterium tuberculosis, H37RV
assay.metric: MIC

Reported MIC of O=C(Nc1nc(-c2ccccn2)cs1)c1ccccn1 : > 20 µM

Reported MIC of Cn1ccnc1C(=O)Nc1ncc([N+](=O)[O-])s1 : > 20 µM

Reported MIC of O=C(Nc1ncc([N+](=O)[O-])s1)C1CCCCC1O (centres unmarked) : > 20 µM

Reported MIC of O=C(Nc1nc(-c2ccccn2)c([N+](=O)[O-])s1)c1ccccn1 : 8.5 µM

Reported MIC of O=C(Nc1ncc([N+](=O)[O-])s1)c1ccncc1 [compound 35, N-(5-Nitrothiazol-2-yl)isonicotinamide] : > 20 µM
